Tested on: HCT-15 colon
Assay: NCI-60 one-dose screen, 48 h
Details: 10 µM unless noted
About 83,000 compounds went through this panel and 20% of them were active in at least one assay; those are over-represented in the sample as a whole. Activity calls are given as the source filed them. How the source made its calls: active means growth percent below 10; inactive means the rest.
Labels: active, inactive

>>> class_label("COc1ccc(/C(C)=C(\\c2ccc(OCCN3CCOCC3)cc2)c2ccc(OC(=O)C3CCCCC3)cc2)cc1")
"inactive"
>>> class_label("OCCN1CCN(c2cc(-c3cccc(OC(F)(F)F)c3)nc3ccc(N4CCCC4)cc23)CC1")
"inactive"
>>> class_label("O=C1/C(=C/c2cn(-c3ccccc3)nc2-c2ccccc2)SC(=S)N1c1ccccc1")
"inactive"
>>> class_label("O=C(NCCCN1CCCCC1)c1ccc(-c2nc3ccc4[nH]ncc4c3c3c2CCCC3)cc1")
"inactive"
>>> class_label("COc1ccc(-c2nnc3n(C)c(=O)c4ccccc4n23)cc1O")
"inactive"
>>> class_label("Cc1nc(-n2[nH]c(=O)ccc2=O)sc1N=Nc1ccccc1")
"inactive"
>>> class_label("COc1ccc2nc3cc(Cl)ccc3c(NCCCNCCC(C)O)c2c1 (centres undefined)")
"active"
>>> class_label("COc1ccc2c(c1)CC[C@@H]1[C@@H]2CC[C@]2(C)C3C(=CCC4C(=O)N(c5ccccc5)C(=O)C43)C[C@@H]12 (some centres undefined)")
"inactive"
>>> class_label("CC[C@]12CN3CCc4c([nH]c5ccccc45)[C@@](C(=O)OC)(c4cc5c(cc4OC)N(C)[C@H]4[C@@](O)(C(=O)OC)[C@H](OC(C)=O)[C@]6(CC)C=CCN7CC[C@]54[C@@H]76)CC(C3)[C@H]1O2 (some centres undefined)")
"inactive"
>>> class_label("C/C(=C(\\c1ccc(OCCN2CCOCC2)cc1)c1ccc(OC(=O)C2CCCCC2)cc1)c1ccc(Cl)cc1")
"inactive"
>>> class_label("Cn1cc(-c2csc(-c3c[nH]c4ccc(F)cc34)n2)c2cnccc21")
"active"
>>> class_label("Cc1nn(-c2nc(-c3cc4ccccc4oc3=O)cs2)c(C)c1N=Nc1ccccc1")
"inactive"
>>> class_label("Cc1ccc(/C=C/c2c(C(=O)/C=C/c3ccccc3)c(C)nc3ccccc23)cc1")
"active"
>>> class_label("N#CC(Cc1cccc2ccccc12)c1cc2ccccc2[nH]1 (centres undefined)")
"inactive"
>>> class_label("Cc1nc2sc(C(=O)Nc3cccc4ccccc34)c(N)c2cc1C(=O)/C=C/c1ccccc1")
"active"
>>> class_label("Nc1nc(CSc2n[nH]c(N)n2)nc(Nc2ccccc2)n1")
"inactive"
>>> class_label("O=C1/C(=C/c2ccc(-c3cccc(C(F)(F)F)c3)o2)SC(=S)N1CCc1ccc(O)cc1")
"inactive"
>>> class_label("C#Cc1cc(C(=O)Nc2ccc(CN3CCN(C)CC3)c(C(F)(F)F)c2)ccc1C")
"inactive"
>>> class_label("COc1cc(/C=N/NC(=O)CCN2c3ccccc3Sc3ccccc32)cc(OC)c1OC")
"inactive"

###

Reported growth is given for each of the following compounds.
System: SN12C renal
Test: NCI-60 one-dose screen, 48 h (100 = growth as untreated, 0 = no growth, -100 = all killed)
Details: 10 µM unless noted
About 83,000 compounds went through this panel and 20% of them were active in at least one assay; those are over-represented in the sample as a whole.
EXPERIMENTAL READOUT: growth (%)

>>> experimental_result("Cc1ccc(C(=O)Nc2ccc(CN3CCN(C)CC3)c(C(F)(F)F)c2)cc1C#Cc1cnc(N)cc1C#N")
-52.9
>>> experimental_result("COc1ccc(C/C(C)=C(/c2ccc(OCCN3CCCCCC3)cc2)c2ccc(OC(=O)c3ccccc3)cc2)cc1")
97.4
>>> experimental_result("Cc1ccc(-c2nc(C#N)c(S(=O)(=O)N(C)C)o2)cc1")
75.2
>>> experimental_result("COc1ccc(C(c2cc(OC)c(OC)c(OC)c2)n2ccnc2)cc1O (stereo not given)")
37.6
>>> experimental_result("CN1CCN(c2ccc(Nc3ncc(C(N)=O)c(NCCCNC(=O)C4CCC4)n3)cc2)CC1")
36.3
>>> experimental_result("COc1ccccc1/C=C1\\COc2ccc(O)c(O)c2C1=O")
-11
>>> experimental_result("O=C(NNC(=S)Nc1ccccc1)c1ccncc1")
109
>>> experimental_result("Nc1nc(N)c2c(n1)NC(c1cccc(Nc3ccnc4cc(C(F)(F)F)ccc34)c1)CC(c1ccc(F)cc1)=N2 (stereo not given)")
59.8
>>> experimental_result("CCN(c1cc(-c2ccc(CN3CCC(/C=C/S(=O)(=O)c4ccccc4)CC3)cc2)cc(C(=O)NCc2c(C)cc(C)[nH]c2=O)c1C)C1CCOCC1")
63.6
>>> experimental_result("c1cc(NCCCCN2CCOCC2)c2ccc3c(ccc4c(NCCN5CCOCC5)ccnc43)c2n1")
64.8
>>> experimental_result("CCN(CC)CC(=O)Nc1ccc2ncnc(Nc3ccc(Oc4cccc(F)c4)c(Cl)c3)c2c1")
67.8
>>> experimental_result("CC(=O)c1c(C)nc2ccccc2c1/C=C/c1cccc(C)c1")
67.7
>>> experimental_result("NC(=O)c1c(NC(=O)/C=C/c2cccs2)sc2c1CCC(=O)C2")
23.1
>>> experimental_result("COc1ccc(Oc2nc(Nc3ccc(N4CCOCC4)cc3)ncc2NC(=O)c2cc(OC)cc(OC)c2)cc1")
89
>>> experimental_result("CCCCC1COc2cccc3c2N1C=C/C3=C\\C(=O)N(C)c1cccc(Cl)c1 (stereo not given)")
94.2
>>> experimental_result("C[C@]12CCc3c(ccc4cc(O)ccc34)[C@@H]1C[C@H](O)[C@@H]2O")
93
>>> experimental_result("O=C1CCCCN1CCCCC#Cc1cccc(C#Cc2cccnc2)c1")
90.3
>>> experimental_result("Cc1ccc(C(=O)Nc2nc3c(s2)CN(Cc2ccccc2)CC3)cn1")
89.7
>>> experimental_result("O=C(Nc1ncc(Cc2cccc(C(F)(F)F)c2)s1)c1ccc(-n2cnnn2)cc1")
79.9
>>> experimental_result("COC(=O)/C=C1/SC(N2N=C(c3cccs3)CC2c2ccc(F)cc2)=NC1=O (stereo not given)")
56

###

System: HCC-2998 colon
Assay: NCI-60 one-dose screen, 48 h
Conditions: 10 µM unless noted
Method: Growth inhibition of the HCC-2998 human tumor cell line is measured as a screen for anti-cancer activity. Cells are grown in 96 well plates and exposed to the test compound for 48 hours. Compounds are tested at a single concentration, which is 10^-5 M for most compounds. The reported endpoint is percent growth (GI% or GIPRCNT), where numbers from 0 - 100% represent growth inhibition, and numbers from -100% - 0 represent cell death. For example, a value of 40 represents 60% growth inhibition. […]
About 83,000 compounds went through this panel and 20% of them were active in at least one assay; those are over-represented in the sample as a whole. Activity calls are given as the source filed them. How the source made its calls: active means growth percent below 10; inactive means the rest.
Labels: active, inactive

>>> class_label("Cc1nc2sc(C(=O)Nc3cccc4ncccc34)c(N)c2cc1C(C)O (stereo not given)")
"inactive"
>>> class_label("Clc1nccc2c(-c3csc(-c4c[nH]c5ccc(Br)cc45)n3)c[nH]c12")
"inactive"
>>> class_label("Clc1ccc(Nc2nc(Nc3ccc(Cl)cc3)nc(Nc3ccc(-c4cc(-c5cccc(Cl)c5)on4)cc3)n2)cc1")
"inactive"
>>> class_label("Oc1ccccc1C=Nc1ccc(N2CCN(c3ccccc3)CC2)cc1")
"inactive"
>>> class_label("CCCCC#Cc1c(/C=C(\\CCCC)SCC)n(C)c(=O)[nH]c1=O")
"inactive"
>>> class_label("C#CCOCC1CN(C)C(=O)O1 (stereo not given)")
"inactive"
>>> class_label("CON1CCC[C@]2(C)[C@H]3CC[C@@H]4[C@H]5[C@@H](O)C(C)(C)CC[C@]5(CO)CC[C@@]4(C)[C@]3(C)CC[C@H]2C1(C)C")
"inactive"
>>> class_label("CCCCSc1ccc2nc(-c3ccc(OCCCN=C(N)N)cc3)cn2c1")
"inactive"
>>> class_label("CC(C)(C)CC(N)=O")
"inactive"
>>> class_label("OCCN1CCN(c2cc(-c3cccc(OC(F)(F)F)c3)nc3ccc(N4CCCC4)cc23)CC1")
"inactive"
>>> class_label("COc1ccccc1/C=C1\\COc2ccc(O)cc2C1=O")
"inactive"
>>> class_label("Cc1cccc(-c2nnc(SCC(=O)Nc3ncc(Cc4ccccc4)s3)n2N2C(=O)CSC2=S)c1")
"inactive"
>>> class_label("COc1ccc(C(=O)N/N=C/c2ccc(O)cc2O)cc1Nc1ccnc(C(F)(F)F)c1")
"inactive"
>>> class_label("C/C=C(/C)C(=O)O[C@@H]1CC(C)(C)CC2C34OC(=O)[C@@]21CC[C@@]3(C)[C@]1(C)CCC2C(C)(C)C(=O)CC[C@]2(C)C1C[C@@H]4Cl (stereo not given in full)")
"inactive"
>>> class_label("Fc1ccc(NC(c2ccc(F)cc2)C2CCN(CCCCc3ccccc3)CC2)cc1 (stereo not given)")
"inactive"
>>> class_label("Cc1nc2sc(C(=O)Nc3cccc4ccccc34)c(N)c2cc1C(=O)/C=C/c1ccccc1")
"active"
>>> class_label("NCCOCCOc1ccccc1")
"inactive"
>>> class_label("COc1ccc(/C=N\\Nc2nc(SCC(C)C)nc(-c3ccc(OC)cc3)c2C#N)cc1")
"inactive"
>>> class_label("COc1cc2c(cc1OCCCOC1=C=C=C(c3ccc4c(c3)c3cc(-c5ccc(OCCCOc6cc7c(cc6OC)C(=O)N6CCC[C@H]6C=N7)cc5)ccc3n4S(=O)(=O)c3ccc(C)cc3)C=C1)N=C[C@@H]1CCCN1C2=O")
"active"
>>> class_label("CC12OC(CC(O)C1O)n1c3ccccc3c3c4c(c5c6ccccc6n2c5c31)C(=O)N(CCN1CCOCC1)C4=O (stereo not given)")
"active"
>>> class_label("C#CCn1cnc2cnc(Nc3cccc(NC(=O)CCl)c3)nc21")
"active"
>>> class_label("COC(=O)/C=C1/SC(N2N=C(c3cccs3)CC2c2ccc(F)cc2)=NC1=O (stereo not given)")
"inactive"
>>> class_label("Cc1cccc(Cc2cnc(NC(=O)CCCOc3ccc(Cl)cc3)s2)c1")
"inactive"
>>> class_label("CN(C)C1CCN(C(=O)c2ccc(NC(=O)Nc3ccc(-c4nc(N5CCOCC5)c5cccn5n4)cc3)cc2)CC1")
"active"
>>> class_label("Nc1ccc(/C=N/Nc2ccnc3c(N)cccc23)c2cccnc12")
"inactive"
>>> class_label("CN(C)CCN1C(=O)c2c(c3c4ccccc4n4c3c3c2c2ccccc2n3C2CC(O)C(O)C4(C)O2)C1=O (stereo not given)")
"inactive"
>>> class_label("Cc1nc2sc(C(=O)Nc3cccc(Cl)c3C)c(N)c2cc1C(O)c1ccccc1 (stereo not given)")
"inactive"
>>> class_label("COc1ccc2c(c1)c(-c1nc(-c3c[nH]c4c(Cl)nccc34)cs1)cn2C")
"inactive"
>>> class_label("COc1ccc(-c2cc(-c3cccnc3)nc3sc4c(Cl)nnnc4c23)cc1OC")
"inactive"
>>> class_label("CCN1CCN(C(=O)[C@]23CC[C@@H](C)[C@H](C)[C@@H]2C2=CC[C@@H]4[C@@]5(C)CCC(=O)C(C)(C)[C@@H]5CC[C@@]4(C)[C@]2(C)CC3)CC1")
"active"
>>> class_label("CN(C)CCCn1c2nc(=O)[nH]c(=O)c-2nc2cc(Cl)c(Cl)cc21")
"inactive"
>>> class_label("Nc1ccccc1SC(CC(=O)c1ccccc1)c1ccc([N+](=O)[O-])cc1 (stereo not given)")
"inactive"
>>> class_label("Brc1ccc(/C=C(/C2=NCCN2)n2ccc3ccccc32)cc1")
"inactive"
>>> class_label("Fc1ccccc1-c1cnn2cc(-c3ccccc3)cnc12")
"inactive"
>>> class_label("COc1ccc(-c2nc(Cl)c3c(C)nn(-c4ccc(F)cc4)c3n2)cc1")
"inactive"
>>> class_label("Nc1[nH]nc(Nc2ccccc2)c1-c1nc2ccccc2s1")
"inactive"
>>> class_label("CN1CCN(C(=O)OCc2nc3c(N4CCOCC4)nc(Cl)nc3n2C)CC1")
"active"
>>> class_label("Cc1ccc(NC(=O)c2sc3nc(C)c(C(=O)c4ccccc4)cc3c2N)cc1")
"inactive"
>>> class_label("COc1ccc(-c2cc3cnc4ccccc4c3oc2=O)cc1")
"inactive"
>>> class_label("CCNC(=O)Nc1ncccc1OCc1ccc(F)cc1")
"inactive"

Data credit: PubChem BioAssay (NCI)
